testedOn: mGluR2 (Mus musculus, UniProt Q14BI2, INS715F)
Sequence (Q14BI2 with tags, fused parts or gaps INS715F): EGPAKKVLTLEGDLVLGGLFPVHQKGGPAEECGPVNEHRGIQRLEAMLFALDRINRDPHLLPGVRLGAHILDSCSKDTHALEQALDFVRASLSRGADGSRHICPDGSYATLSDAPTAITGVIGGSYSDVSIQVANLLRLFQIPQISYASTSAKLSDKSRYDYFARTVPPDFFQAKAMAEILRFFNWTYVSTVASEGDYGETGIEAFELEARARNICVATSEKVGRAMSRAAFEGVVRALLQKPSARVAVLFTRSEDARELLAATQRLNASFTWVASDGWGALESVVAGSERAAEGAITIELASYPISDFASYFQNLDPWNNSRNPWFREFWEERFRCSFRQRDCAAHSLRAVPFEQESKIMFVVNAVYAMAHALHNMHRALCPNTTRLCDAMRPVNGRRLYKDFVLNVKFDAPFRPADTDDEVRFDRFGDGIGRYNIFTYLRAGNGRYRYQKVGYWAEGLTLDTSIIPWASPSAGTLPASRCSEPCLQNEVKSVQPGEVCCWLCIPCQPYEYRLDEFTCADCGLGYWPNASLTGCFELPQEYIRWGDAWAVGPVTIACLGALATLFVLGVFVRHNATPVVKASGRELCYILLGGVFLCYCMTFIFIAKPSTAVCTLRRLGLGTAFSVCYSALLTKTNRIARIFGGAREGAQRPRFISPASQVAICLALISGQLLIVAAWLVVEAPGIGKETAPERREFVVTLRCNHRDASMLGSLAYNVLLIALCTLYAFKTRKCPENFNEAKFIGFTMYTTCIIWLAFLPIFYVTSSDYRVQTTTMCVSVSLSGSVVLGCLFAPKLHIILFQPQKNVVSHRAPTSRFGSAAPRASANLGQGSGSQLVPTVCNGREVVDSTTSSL
assayDetails: Live-cell FRET, azi-ECL2 (7TM domain, extracellular loop 2) sensor in HEK293T cells;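 further: Cy3/Cy5 click-labeled sensor, whole-membrane ROIs per cell, apparent FRET after bleed-through correction, ΔFRET as treatment minus pre-treatment signal, at room temperature, at least three biological replicates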
conditionNotes: read-out: Mean half-maximum effective concentration (EC50); azi-ECL2 sensor, orthosteric agonist alone
recordedEndpoint: pEC50
Scale for pEC50: -log10 of concentration given in mol/L; no unit attached.

// query pEC50 value for entry N[C@H](C(=O)O)C1[C@@H](C(=O)O)[C@@H]1C(=O)O (some centres unmarked) 6.05

// query pEC50 value for entry N[C@@]1(C(=O)O)CN[C@@H](C(=O)O)C1 5.17

* * *

testedOn: mGluR2 (Mus musculus, UniProt Q14BI2, A548F)
Sequence (Q14BI2 19-872 A548F): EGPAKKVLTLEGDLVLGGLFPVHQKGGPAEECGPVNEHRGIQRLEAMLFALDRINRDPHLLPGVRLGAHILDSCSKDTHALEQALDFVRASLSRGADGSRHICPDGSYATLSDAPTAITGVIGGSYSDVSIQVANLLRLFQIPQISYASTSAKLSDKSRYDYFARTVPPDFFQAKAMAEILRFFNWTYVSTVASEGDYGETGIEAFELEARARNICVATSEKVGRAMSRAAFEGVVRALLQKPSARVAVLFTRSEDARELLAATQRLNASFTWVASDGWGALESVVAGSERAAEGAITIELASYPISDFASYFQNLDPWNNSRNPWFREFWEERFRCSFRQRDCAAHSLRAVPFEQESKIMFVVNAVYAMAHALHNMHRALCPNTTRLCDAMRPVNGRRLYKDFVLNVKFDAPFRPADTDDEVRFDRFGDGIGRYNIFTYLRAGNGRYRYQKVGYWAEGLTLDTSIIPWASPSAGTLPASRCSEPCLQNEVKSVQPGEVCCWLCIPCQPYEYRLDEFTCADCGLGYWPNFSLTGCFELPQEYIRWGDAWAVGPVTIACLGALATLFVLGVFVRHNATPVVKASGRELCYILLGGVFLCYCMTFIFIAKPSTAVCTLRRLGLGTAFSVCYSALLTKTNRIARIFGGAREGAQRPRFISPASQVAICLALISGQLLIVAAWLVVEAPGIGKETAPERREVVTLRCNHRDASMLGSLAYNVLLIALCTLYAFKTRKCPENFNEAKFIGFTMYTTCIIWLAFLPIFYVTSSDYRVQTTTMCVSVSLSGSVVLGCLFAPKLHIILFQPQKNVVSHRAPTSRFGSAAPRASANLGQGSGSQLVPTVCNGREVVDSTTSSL
assayDetails: Live-cell FRET, azi-CRD (cysteine-rich domain) sensor in HEK293T cells
conditionNotes: Mean half-maximum effective concentration (EC50), azi-CRD sensor, orthosteric agonist alone; nM for LY379268 (footnote)
recordedEndpoint: EC50 (nM)
State the answer as a number, implicitly in nM.

// query EC50 value for entry N[C@@]1(C(=O)O)CO[C@H]2[C@H](C(=O)O)[C@H]21 [LY379268] 12.1
